Biological target: HLA-A*31:01
Experiment: IEDB peptide-MHC binding, purified MHC/competitive/radioactivity; filed as Kd, often an IC50 or EC50 that approximates it; bounds were set here for any values at or beyond the usual limits of such assays
Settings: source organism: Triticum aestivum
pKd: −log10 of the molar value.
Measured Parameter: pKd

Prompt line: Please give the measured pKd for this sequence: AIILHQQQK
Response line: ≤ 4.69

* * *

Biological target: HLA-A*02:03
Experiment: IEDB peptide-MHC binding, purified MHC/competitive/radioactivity; filed as Kd, often an IC50 or EC50 that approximates it; bounds were set here for any values at or beyond the usual limits of such assays
Settings: source organism: Dengue virus 2 Jamaica/1409/1983
Measured Parameter: Kd (µM)
Numbers only, in µM.

Sequence Chain: VVIAILTVV
Target Of Assay: HLA-A*02:03
Test Result: 0.0338

Would you mind giving Kd for every sequence in the list below?
1. LLLTLLATV
2. SMFEPEREKV
3. VMKDGRVLV

Response line:
0.00155
0.14
0.0507
